- ASSAY PROTOCOL: Antiasthmatic effect, oral (protection against histamine spray 30 min after oral administration in guinea-pigs)
- Assay type: in vivo
- PARTICULARS: ratio of diarrhea ED50 (b) to oral antiasthmatic ED50 (a)
METRIC NAME: b/a

> print(dat)
                                   compound  reported.measurement
1  CCCCC(C)C(O)/C=C/[C@H]1[C@H](O)CC(=O)[C@@H]1C/C=C\CCCC(=O)O (stereo partly drawn)                   4.0
2  COCCCC[C@H](C)C(O)/C=C/[C@H]1[C@H](O)CC(=O)[C@@H]1C/C=C\CCCC(=O)O (stereo partly drawn)                  20.0
3  COCCCCC(C)C(O)/C=C/[C@H]1[C@H](O)CC(=O)[C@@H]1C/C=C\CCCC(=O)O (stereo partly drawn)                  12.2
4  COCCCCC(C)C(O)/C=C/[C@H]1[C@H](O)CC(=O)[C@@H]1C/C=C\CCCC(=O)OC (stereo partly drawn) [Example 7 ([α]D^25-66.4°)]                  9.62
5  CCCC[C@@H](C)C(O)/C=C/[C@H]1[C@H](O)CC(=O)[C@@H]1C/C=C\CCCC(=O)O (stereo partly drawn)                  1.43
6  COCCCC[C@H](C)C(O)/C=C/[C@H]1[C@H](O)CC(=O)[C@@H]1C/C=C\CCCC(=O)OC (stereo partly drawn) [Example 7 ([α]D^25-58.0°)]                  9.06

====

- ASSAY PROTOCOL: Diarrhea-producing effect, oral, guinea-pigs
- PARTICULARS: guinea pig, in vivo, 2hr to next morning, read-out: (A) Diarrhea-producing effect (b), ED50
Friendly reminder: TD50 below 0.1 mg/kg is label 1, at or above is label 0.

> print(dat)
                                   compound  category.label
1  COCCCCC(C)C(O)/C=C/[C@H]1[C@H](O)CC(=O)[C@@H]1C/C=C\CCCC(=O)O (stereo partly drawn) [Example 3]         label 0
2  CCCC[C@@H](C)C(O)/C=C/[C@H]1[C@H](O)CC(=O)[C@@H]1C/C=C\CCCC(=O)O (stereo partly drawn)         label 1
3  COCCCC[C@H](C)C(O)/C=C/[C@H]1[C@H](O)CC(=O)[C@@H]1C/C=C\CCCC(=O)OC (stereo partly drawn) [Example 7 ([α]D^25-58.0°)]         label 0
4  COCCCC[C@H](C)C(O)/C=C/[C@H]1[C@H](O)CC(=O)[C@@H]1C/C=C\CCCC(=O)O (stereo partly drawn) [Example 6]         label 0
5  COCCCCC(C)C(O)/C=C/[C@H]1[C@H](O)CC(=O)[C@@H]1C/C=C\CCCC(=O)OC (stereo partly drawn) [Example 7 ([α]D^25-66.4°)]         label 1
